Every entry's value here was drawn from ChEMBL document CHEMBL4609984.

Tested on: Bacillus cereus
measurement.protocol: Antibacterial activity against Bacillus cereus ATCC 11779 assessed as reduction in bacterial growth incubated for 24 hrs by INT dye based assay
Assay type: functional
experimental.parameters: ATCC 11779, 24 h
// boundary case: MIC equal to 60 µg/mL maps to rule not met; strictly smaller maps to rule met

>>> group("COc1cccc(-c2cncn2C2CCCCC2)c1")
"rule not met"
>>> group("COc1ccc(-c2cncn2Cc2ccccc2)c(OC)c1")
"rule not met"
>>> group("COc1ccc(-c2cncn2C2CCCCC2)c(OC)c1")
"rule not met"
>>> group("CC(C)(C)c1ccc(-c2cncn2C2CCCCC2)cc1")
"rule met"
>>> group("CCCCn1cncc1-c1ccc2c(c1)OCO2")
"rule met"
>>> group("CCCCn1cncc1-c1ccc(C(C)(C)C)cc1")
"rule met"
>>> group("O=C(O)c1cn(C2CC2)c2cc(N3CCNCC3)c(F)cc2c1=O")
"rule met"
>>> group("Fc1ccc(-c2cncn2Cc2ccccc2)cc1")
"rule not met"
>>> group("CCCCn1cncc1-c1cccc(OC)c1")
"rule not met"

---

measurement.protocol: Cytotoxicity against human MT4 cells assessed as reduction in cell viability incubated for 5 days by MTS assay
Assay type: cell-based
Recorded measurements of CC50 at 120 h, one per entry
value.type: CC50 at 120 h

>>> test_value("COc1cccc(-c2cncn2C2CCCCC2)c1")
"27.7 µM"
>>> test_value("CCCCn1cncc1-c1cccc(OC)c1")
"29.6 µM"
>>> test_value("COc1ccc(-c2cncn2-c2ccc(Br)cc2)c(OC)c1")
"55.5 µM"
>>> test_value("Fc1ccc(-c2cncn2-c2ccc(Br)cc2)cc1")
"48 µM"
>>> test_value("CCCCn1cncc1-c1ccc(C(C)(C)C)cc1")
"23.9 µM"
>>> test_value("CC(C)(C)c1ccc(-c2cncn2C2CCCCC2)cc1")
"21.8 µM"

---

Test system: Staphylococcus aureus
measurement.protocol: Antibacterial activity against Staphylococcus aureus ATCC 25923 assessed as reduction in bacterial growth incubated for 24 hrs by INT dye based assay
Type: functional
experimental.parameters: ATCC 25923, 24 h
Recorded measurements of MIC, one per entry
value.type: MIC (µg/mL)

>>> test_value("COc1ccc(-c2cncn2C2CCCCC2)c(OC)c1")
62.5
>>> test_value("COc1cccc(-c2cncn2C2CCCCC2)c1")
62.5
>>> test_value("CC(C)(C)c1ccc(-c2cncn2C2CCCCC2)cc1")
62.5
>>> test_value("Fc1ccc(-c2cncn2Cc2ccccc2)cc1")
62.5
>>> test_value("COc1ccc(-c2cncn2Cc2ccccc2)c(OC)c1")
62.5
>>> test_value("CCCCn1cncc1-c1ccc(C(C)(C)C)cc1")
15.6
>>> test_value("O=C(O)c1cn(C2CC2)c2cc(N3CCNCC3)c(F)cc2c1=O")
0.156

---

system.name: Human immunodeficiency virus type 1 integrase (Human immunodeficiency virus 1, UniProt Q7ZJM1)
Sequence (Q7ZJM1 whole entry): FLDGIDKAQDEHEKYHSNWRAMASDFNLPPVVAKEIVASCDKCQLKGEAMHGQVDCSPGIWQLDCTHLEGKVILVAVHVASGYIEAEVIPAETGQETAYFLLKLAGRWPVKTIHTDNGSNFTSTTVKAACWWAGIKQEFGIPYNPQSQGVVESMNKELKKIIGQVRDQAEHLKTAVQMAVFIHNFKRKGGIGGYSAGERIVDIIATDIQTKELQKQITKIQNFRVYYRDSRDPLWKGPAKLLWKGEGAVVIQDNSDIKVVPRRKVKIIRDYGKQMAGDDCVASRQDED
measurement.protocol: Inhibition of HIV-1 integrase assessed as inhibition of interaction of HIV-1 IN with LEDGF/p75 (unknown origin) preincubated with enzyme for 30 mins followed by further incubation with LEDGF/p75 for 1 hr by Alphascreen assay
// boundary case: IC50 equal to 20 µM maps to False; strictly smaller maps to True

>>> group("CCCCn1cncc1-c1ccc(C(C)(C)C)cc1")
"False"
>>> group("COc1cccc(-c2cncn2C2CCCCC2)c1")
"False"
>>> group("CCCCn1cncc1-c1cccc(OC)c1")
"False"
>>> group("Fc1ccc(-c2cncn2-c2ccc(Br)cc2)cc1")
"False"
>>> group("CC(C)(C)c1ccc(-c2cncn2C2CCCCC2)cc1")
"True"
>>> group("COc1ccc(-c2cncn2-c2ccc(Br)cc2)c(OC)c1")
"True"
